Molecular target: UniProtKB P08908
Sequence (P08908 whole entry): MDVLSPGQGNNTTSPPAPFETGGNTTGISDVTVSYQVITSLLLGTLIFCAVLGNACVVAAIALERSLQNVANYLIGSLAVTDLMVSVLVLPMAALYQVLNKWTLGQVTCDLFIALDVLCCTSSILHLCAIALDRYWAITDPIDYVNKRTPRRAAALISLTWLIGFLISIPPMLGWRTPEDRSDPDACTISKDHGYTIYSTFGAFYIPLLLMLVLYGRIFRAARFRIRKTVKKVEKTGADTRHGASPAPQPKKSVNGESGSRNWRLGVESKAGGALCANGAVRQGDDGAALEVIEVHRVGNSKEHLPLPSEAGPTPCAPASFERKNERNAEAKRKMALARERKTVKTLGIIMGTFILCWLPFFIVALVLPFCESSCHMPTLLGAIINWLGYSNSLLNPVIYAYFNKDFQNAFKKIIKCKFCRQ
Assay: Displacement of [3H]-8-OH-DPAT from human 5-HT1A receptor expressed in CHO-K1 cell membranes at 1 uM after 1 hr by micro beta2 scintillation counting analysis
MEASURE: inhibition (%)
Write it as a number; the unit % goes unstated.

So for CC(C)Oc1ccccc1OCCN1CCC(CNS(=O)(=O)c2cccc3cccnc23)CC1 , the logged inhibition turned out to be 61

So for COc1ccc(S(=O)(=O)NCC2CCN(CCOc3ccccc3OC)CC2)cc1OC , the logged inhibition turned out to be 72

So for COc1ccccc1OCCN1CCC(NS(=O)(=O)c2cncc3ccccc23)CC1 , the logged inhibition turned out to be 69

So for CC(C)Oc1ccccc1OCCN1CCC(CNS(=O)(=O)c2cccc(Cl)c2F)CC1 , the logged inhibition turned out to be 59

So for COc1ccccc1OCCN1CCC(CNS(=O)(=O)c2cncc3ccccc23)CC1 , the logged inhibition turned out to be 78

---

For each of the molecules below, state its Ki.
Molecular target: Adrenergic receptor alpha-1 (Rattus norvegicus, UniProt P15823+P23944+P43140)
Test: Displacement of [3H]-Prazosin from alpha1 adrenergic receptor in rat brain cerebral cortex membranes by liquid scintillation counting analysis
Type: cell membranes, Membrane
Write it as a number; the unit µM goes unstated.

So for COc1ccccc1OCCN1CCC(NS(=O)(=O)c2cccc3cccnc23)CC1 , the logged Ki turned out to be 0.093

So for CC(C)Oc1ccccc1OCCN1CC[C@@H](NS(=O)(=O)c2cc(Cl)ccc2F)C1 , the logged Ki turned out to be 0.106

So for COc1ccccc1OCCN1CC[C@@H](NS(=O)(=O)c2cc(Cl)ccc2F)C1 , the logged Ki turned out to be 0.289

So for COc1ccccc1OCCN1CC[C@H](NS(=O)(=O)c2cccc(Cl)c2F)C1 , the logged Ki turned out to be 0.348

So for CC(C)Oc1ccccc1OCCN1CCC(NS(=O)(=O)c2cccc(Cl)c2F)CC1 , the logged Ki turned out to be 0.131

So for COc1ccccc1OCCN1CCC(CNS(=O)(=O)c2cc(Cl)ccc2F)CC1 , the logged Ki turned out to be 0.056

So for CC(C)Oc1ccccc1OCCN1CCC(CNS(=O)(=O)c2cc(Cl)ccc2F)CC1 , the logged Ki turned out to be 0.133

So for CC(C)Oc1ccccc1OCCN1CCC(CNS(=O)(=O)c2cccc3cccnc23)CC1 , the logged Ki turned out to be 0.095

So for COc1ccccc1OCCN1CC[C@H](NS(=O)(=O)c2cc(Cl)ccc2F)C1 , the logged Ki turned out to be 0.214

So for CC(C)Oc1ccccc1OCCN1CCC(CNS(=O)(=O)c2cccc(Cl)c2F)CC1 , the logged Ki turned out to be 0.071

So for CC(C)Oc1ccccc1OCCN1CC[C@@H](NS(=O)(=O)c2cccc(Cl)c2F)C1 , the logged Ki turned out to be 0.176

So for COc1ccc(S(=O)(=O)NCC2CCN(CCOc3ccccc3OC)CC2)cc1OC , the logged Ki turned out to be 0.081

So for COc1ccc(S(=O)(=O)NC2CCN(CCOc3ccccc3OC)CC2)cc1OC , the logged Ki turned out to be 0.099

So for COc1ccccc1OCCN1CCC(NS(=O)(=O)c2cncc3ccccc23)CC1 , the logged Ki turned out to be 0.052

So for COc1ccccc1OCCN1CCC(CNS(=O)(=O)c2cncc3ccccc23)CC1 , the logged Ki turned out to be 0.09

So for COc1ccccc1OCCN1CC[C@@H](NS(=O)(=O)c2cccc(Cl)c2F)C1 , the logged Ki turned out to be 0.241

So for CC(C)Oc1ccccc1OCCN1CC[C@H](NS(=O)(=O)c2cccc(Cl)c2F)C1 , the logged Ki turned out to be 0.092

So for CC(C)Oc1ccccc1OCCN1CC[C@H](NS(=O)(=O)c2cc(Cl)ccc2F)C1 , the logged Ki turned out to be 0.242

So for CC(C)Oc1ccccc1OCCN1CCC(NS(=O)(=O)c2cccc3cccnc23)CC1 , the logged Ki turned out to be 0.073

So for COc1ccccc1OCCN1CCC(CNS(=O)(=O)c2cccc(Cl)c2F)CC1 , the logged Ki turned out to be 0.048

So for COc1ccccc1OCCN1CCC(CNS(=O)(=O)c2cccc(Cl)c2)CC1 , the logged Ki turned out to be 0.046

So for CC(C)Oc1ccccc1OCCN1CCC(CNS(=O)(=O)c2cncc3ccccc23)CC1 , the logged Ki turned out to be 0.067

So for COc1ccccc1OCCN1CCC(NS(=O)(=O)c2cc(Cl)ccc2F)CC1 , the logged Ki turned out to be 0.034

So for CC(C)Oc1ccccc1OCCN1CCC(NS(=O)(=O)c2cc(Cl)ccc2F)CC1 , the logged Ki turned out to be 0.118

So for CC(C)Oc1ccccc1OCCN1CCC(CNS(=O)(=O)c2ccc(F)cc2)CC1 , the logged Ki turned out to be 0.077

---

For each of the molecules below, state its inhibition.
Target: 5-hydroxytryptamine receptor 7 (Homo sapiens)
Assay: Displacement of [3H]-LSD from human 5-HT7 receptor expressed in CHO-K1 cell membranes at 1 uM after 2 hr by micro beta2 scintillation counting analysis
Write it as a number; the unit % goes unstated.

So for COc1ccccc1OCCN1CCC(CNS(=O)(=O)c2cncc3ccccc23)CC1 , the logged inhibition turned out to be 89

So for CC(C)Oc1ccccc1OCCN1CCC(CNS(=O)(=O)c2cccc3cccnc23)CC1 , the logged inhibition turned out to be 91

So for CC(C)Oc1ccccc1OCCN1CCC(CNS(=O)(=O)c2cccc(Cl)c2F)CC1 , the logged inhibition turned out to be 90

So for COc1ccccc1OCCN1CCC(NS(=O)(=O)c2cncc3ccccc23)CC1 , the logged inhibition turned out to be 87

So for COc1ccc(S(=O)(=O)NCC2CCN(CCOc3ccccc3OC)CC2)cc1OC , the logged inhibition turned out to be 52

---

Biological target: Alpha-1B adrenergic receptor (Homo sapiens)
Sequence (P35368 whole entry): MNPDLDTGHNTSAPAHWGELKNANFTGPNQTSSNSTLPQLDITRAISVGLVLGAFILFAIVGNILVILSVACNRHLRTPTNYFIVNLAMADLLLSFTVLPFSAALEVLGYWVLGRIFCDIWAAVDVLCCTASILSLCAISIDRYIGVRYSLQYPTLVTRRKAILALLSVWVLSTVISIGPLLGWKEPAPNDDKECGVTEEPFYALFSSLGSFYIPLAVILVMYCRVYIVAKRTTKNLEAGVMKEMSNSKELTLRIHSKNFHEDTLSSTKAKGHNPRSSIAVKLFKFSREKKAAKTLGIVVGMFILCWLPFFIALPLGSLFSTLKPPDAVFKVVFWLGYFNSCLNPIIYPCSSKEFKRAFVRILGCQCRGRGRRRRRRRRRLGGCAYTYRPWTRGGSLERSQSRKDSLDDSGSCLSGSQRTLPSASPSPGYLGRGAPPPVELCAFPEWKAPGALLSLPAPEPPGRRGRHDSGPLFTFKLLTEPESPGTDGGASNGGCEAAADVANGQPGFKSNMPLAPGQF
Experiment: Intrinsic activity at human alpha1B adrenergic receptor expressed in CHOK1 cells co-expressing aequorin assessed as inhibition of agonist induced calcium mobilization preincubated for 15 mins followed by agonist addition measured for 20 secs in presence of coelenterazine H by luminescence assay
For each of the compounds below, state its EC50.
Write it as a number; the unit nM goes unstated.

So for COc1ccccc1OCCN1CCC(CNS(=O)(=O)c2cccc(Cl)c2F)CC1 , the logged EC50 turned out to be 14.1

So for COc1ccccc1OCCN1CCC(CNS(=O)(=O)c2cc(Cl)ccc2F)CC1 , the logged EC50 turned out to be 12.7

So for CC(C)Oc1ccccc1OCCN1CCC(CNS(=O)(=O)c2cccc(Cl)c2F)CC1 , the logged EC50 turned out to be 42.1

So for COc1ccc(S(=O)(=O)NCC2CCN(CCOc3ccccc3OC)CC2)cc1OC , the logged EC50 turned out to be 599

So for CC(C)Oc1ccccc1OCCN1CCC(CNS(=O)(=O)c2cccc3cccnc23)CC1 , the logged EC50 turned out to be 105

---

For each of the molecules below, state its inhibition.
Target: UniProt:P34969
Sequence (P34969 whole entry): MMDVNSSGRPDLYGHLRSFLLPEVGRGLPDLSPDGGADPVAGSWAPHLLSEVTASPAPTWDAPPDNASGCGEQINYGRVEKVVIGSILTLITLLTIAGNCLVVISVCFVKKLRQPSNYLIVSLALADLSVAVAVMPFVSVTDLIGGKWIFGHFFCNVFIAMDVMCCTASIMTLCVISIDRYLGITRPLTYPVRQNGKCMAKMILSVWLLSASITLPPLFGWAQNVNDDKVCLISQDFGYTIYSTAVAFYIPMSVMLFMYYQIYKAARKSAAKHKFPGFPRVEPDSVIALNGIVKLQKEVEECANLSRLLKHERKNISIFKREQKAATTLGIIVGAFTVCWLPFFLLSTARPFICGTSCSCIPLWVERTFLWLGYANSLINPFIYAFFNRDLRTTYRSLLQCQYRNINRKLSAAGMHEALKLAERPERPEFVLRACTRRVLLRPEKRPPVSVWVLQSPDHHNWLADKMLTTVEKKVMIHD
Experiment: Displacement of [3H]-LSD from human 5-HT7 receptor expressed in CHO-K1 cell membranes at 10 uM after 2 hr by micro beta2 scintillation counting analysis
Details: 0.1 uM, in the assay text read “at 0.1 uM” for “at 10 uM”
Write it as a number; the unit % goes unstated.

Value sought: inhibition, system UniProt:P34969, item CC(C)Oc1ccccc1OCCN1CCC(CNS(=O)(=O)c2cccc(Cl)c2F)CC1 . Result: 45

Value sought: inhibition, system UniProt:P34969, item COc1ccccc1OCCN1CCC(CNS(=O)(=O)c2cncc3ccccc23)CC1 . Result: 54

Value sought: inhibition, system UniProt:P34969, item COc1ccc(S(=O)(=O)NCC2CCN(CCOc3ccccc3OC)CC2)cc1OC . Result: 16

Value sought: inhibition, system UniProt:P34969, item COc1ccccc1OCCN1CCC(NS(=O)(=O)c2cncc3ccccc23)CC1 . Result: 41

Value sought: inhibition, system UniProt:P34969, item CC(C)Oc1ccccc1OCCN1CCC(CNS(=O)(=O)c2cccc3cccnc23)CC1 . Result: 51

---

Organism: Rattus norvegicus
Assay: Selectivity ratio of Ki for alpha2 adrenergic receptor in rat brain cerebral cortex membranes to Ki for alpha1 adrenergic receptor in rat brain cerebral cortex membranes
Format: cell membranes
MEASURE: Ratio Ki
Respond numerically, and do not add a unit to the figure.

So for COc1ccccc1OCCN1CCC(NS(=O)(=O)c2cc(Cl)ccc2F)CC1 , the logged Ratio Ki turned out to be 4

So for CC(C)Oc1ccccc1OCCN1CCC(NS(=O)(=O)c2cccc(Cl)c2F)CC1 , the logged Ratio Ki turned out to be 1

So for COc1ccccc1OCCN1CCC(NS(=O)(=O)c2cccc3cccnc23)CC1 , the logged Ratio Ki turned out to be 1

So for CC(C)Oc1ccccc1OCCN1CC[C@@H](NS(=O)(=O)c2cc(Cl)ccc2F)C1 , the logged Ratio Ki turned out to be 4

So for COc1ccccc1OCCN1CC[C@@H](NS(=O)(=O)c2cccc(Cl)c2F)C1 , the logged Ratio Ki turned out to be 8

So for COc1ccccc1OCCN1CC[C@@H](NS(=O)(=O)c2cc(Cl)ccc2F)C1 , the logged Ratio Ki turned out to be 8

So for CC(C)Oc1ccccc1OCCN1CC[C@@H](NS(=O)(=O)c2cccc(Cl)c2F)C1 , the logged Ratio Ki turned out to be 2

So for CC(C)Oc1ccccc1OCCN1CCC(CNS(=O)(=O)c2ccc(F)cc2)CC1 , the logged Ratio Ki turned out to be 5

So for CC(C)Oc1ccccc1OCCN1CCC(CNS(=O)(=O)c2cc(Cl)ccc2F)CC1 , the logged Ratio Ki turned out to be 7

So for CC(C)Oc1ccccc1OCCN1CCC(CNS(=O)(=O)c2cncc3ccccc23)CC1 , the logged Ratio Ki turned out to be 9

So for CC(C)Oc1ccccc1OCCN1CCC(NS(=O)(=O)c2cc(Cl)ccc2F)CC1 , the logged Ratio Ki turned out to be 3

So for CC(C)Oc1ccccc1OCCN1CCC(NS(=O)(=O)c2cccc3cccnc23)CC1 , the logged Ratio Ki turned out to be 3
